experiment: COS7 lysate on small-molecule microarray, probe aHis, 635 nm (AID 1123); details: COS7 cell lysate, fluorescence, higher = more signal;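 also: z-score combines 667nm fluorescence intensity with signal-to-noise per printed compound spot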
READOUT NAME: composite z-score

[[record]]
molecule = "CCC[C@@H]1C=C(C(=O)OCC)[C@H](c2ccccc2)N1S(=O)(=O)c1ccc(C)cc1"
reported_result = -0.0844

[[record]]
molecule = "COCC(=C=CC[C@@H](O)c1ccc(OCCO)cc1)C[C@@H](O)COCc1ccccc1"
reported_result = 2.3

[[record]]
molecule = "CC(C)[C@@H](C(=O)O)n1cc(-c2ccccc2)nn1"
reported_result = 0.575

[[record]]
molecule = "COC(=O)C1=CC(CCCO)=CC(C2CC2)N(Cc2cccc(OC(F)(F)F)c2)C=C1C(=O)OC (stereo not drawn)"
reported_result = 2.23

[[record]]
molecule = "O=C1C2C=CC(C(O)c3ccc([N+](=O)[O-])cc3)N(Nc3ccccc3)C2C(=O)N1c1ccccc1 (stereo not drawn)"
reported_result = 1.42

[[record]]
molecule = "CCOC(=O)C[C@H]1[C@H](OC(=O)c2ccc(C(=O)c3ccccc3)cc2)[C@@H](NC(=O)c2ccc3ccccc3c2)c2cc(OCCCO)ccc2N1C(=O)c1ccc2ccccc2n1"
reported_result = 0.853

[[record]]
molecule = "CC(C)(C)OC(=O)CC[C@]1(C(=O)N2CCOCC2)N=C(c2ccc(OCCCO)cc2)O[C@H]1c1ccccc1CN=[N+]=[N-]"
reported_result = 3.11

[[record]]
molecule = "COc1ccc([Si](C)(C)[C@@H]2[C@@H](CCO)O[C@]3(C(=O)N(Cc4ccccc4)c4ccc(N5C(=O)c6ccccc6Oc6ccccc65)cc43)[C@H]2C)cc1"
reported_result = 0.981

[[record]]
molecule = "O=C1O[C@H](c2ccccc2)[C@H](c2ccccc2)N2[C@H]1[C@@H](C(=O)N1CCN(c3ncccn3)CC1)[C@]1(C(=O)Nc3ccccc31)[C@H]2c1ccc(O)cc1"
reported_result = 2.48

[[record]]
molecule = "CCCC[C@H]1OB(O)C[C@H]2C1=C(COC)C[C@H]1C(=O)C=CC(=O)[C@H]12"
reported_result = -0.279

[[record]]
molecule = "CCOC(=O)C1=CCC(c2cc3ccccc3[nH]2)N(S(=O)(=O)c2ccccc2[N+](=O)[O-])C1 (stereo not drawn)"
reported_result = 2.37

[[record]]
molecule = "COc1cc(OC)c(C(O)C2C=CC3C(=O)N(c4ccccc4)C(=O)C3N2Nc2ccccc2F)cc1Br (stereo not drawn)"
reported_result = 2.91

[[record]]
molecule = "C=CC[C@@]12N=C(c3ccc(OCCCO)cc3)O[C@@H]1c1ccccc1N(Cc1ccccc1)C2=O"
reported_result = 3.15

[[record]]
molecule = "COc1ccc(NN2C(C(O)c3cc(C(F)(F)F)cc(C(F)(F)F)c3)C=CC3C(=O)N(C4CCCCC4)C(=O)C32)cc1 (stereo not drawn)"
reported_result = 1.5

[[record]]
molecule = "Cc1c(NC(=O)/C(C#N)=C/c2ccc(Cl)cc2)c(=O)n(-c2ccccc2)n1C"
reported_result = 1.65

[[record]]
molecule = "CN(C)CCCNC(=O)[C@@]1(Cc2ccccc2I)c2ccccc2C(=O)N(Cc2ccccc2)[C@H]1c1ccc(CO)cc1"
reported_result = 3.21

[[record]]
molecule = "CC(C)(C)N1CC=CC23O[C@@H]4/C=C\\CCCOC(=O)C4[C@H]2C(=O)N(CCCCCCO)[C@@H]3C1=O (stereo partly drawn)"
reported_result = 0.185

[[record]]
molecule = "COCCOC(=O)N1C(=O)[C@@]2(c3cc(C#CCC(C(=O)OC)C(=O)OC)ccc31)[C@H](c1ccc(OCCO)cc1)N1[C@H](c3ccccc3)[C@H](c3ccccc3)OC(=O)[C@H]1[C@@H]2C(=O)N1CCCCCCC1"
reported_result = 3.41


###

molecular target: Epidermal growth factor receptor (Homo sapiens) (UniProt P00533); test: EGFR binders on small-molecule microarrays, primary screen, biochemical, small-molecule microarray, 635 nm fluorescence (AID 1104); settings: EGFR binding, higher = more signal;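 also: score merges 667 nm emission intensity with spot signal to noise over triplicate slides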
Sequence (P00533 whole entry, looked up): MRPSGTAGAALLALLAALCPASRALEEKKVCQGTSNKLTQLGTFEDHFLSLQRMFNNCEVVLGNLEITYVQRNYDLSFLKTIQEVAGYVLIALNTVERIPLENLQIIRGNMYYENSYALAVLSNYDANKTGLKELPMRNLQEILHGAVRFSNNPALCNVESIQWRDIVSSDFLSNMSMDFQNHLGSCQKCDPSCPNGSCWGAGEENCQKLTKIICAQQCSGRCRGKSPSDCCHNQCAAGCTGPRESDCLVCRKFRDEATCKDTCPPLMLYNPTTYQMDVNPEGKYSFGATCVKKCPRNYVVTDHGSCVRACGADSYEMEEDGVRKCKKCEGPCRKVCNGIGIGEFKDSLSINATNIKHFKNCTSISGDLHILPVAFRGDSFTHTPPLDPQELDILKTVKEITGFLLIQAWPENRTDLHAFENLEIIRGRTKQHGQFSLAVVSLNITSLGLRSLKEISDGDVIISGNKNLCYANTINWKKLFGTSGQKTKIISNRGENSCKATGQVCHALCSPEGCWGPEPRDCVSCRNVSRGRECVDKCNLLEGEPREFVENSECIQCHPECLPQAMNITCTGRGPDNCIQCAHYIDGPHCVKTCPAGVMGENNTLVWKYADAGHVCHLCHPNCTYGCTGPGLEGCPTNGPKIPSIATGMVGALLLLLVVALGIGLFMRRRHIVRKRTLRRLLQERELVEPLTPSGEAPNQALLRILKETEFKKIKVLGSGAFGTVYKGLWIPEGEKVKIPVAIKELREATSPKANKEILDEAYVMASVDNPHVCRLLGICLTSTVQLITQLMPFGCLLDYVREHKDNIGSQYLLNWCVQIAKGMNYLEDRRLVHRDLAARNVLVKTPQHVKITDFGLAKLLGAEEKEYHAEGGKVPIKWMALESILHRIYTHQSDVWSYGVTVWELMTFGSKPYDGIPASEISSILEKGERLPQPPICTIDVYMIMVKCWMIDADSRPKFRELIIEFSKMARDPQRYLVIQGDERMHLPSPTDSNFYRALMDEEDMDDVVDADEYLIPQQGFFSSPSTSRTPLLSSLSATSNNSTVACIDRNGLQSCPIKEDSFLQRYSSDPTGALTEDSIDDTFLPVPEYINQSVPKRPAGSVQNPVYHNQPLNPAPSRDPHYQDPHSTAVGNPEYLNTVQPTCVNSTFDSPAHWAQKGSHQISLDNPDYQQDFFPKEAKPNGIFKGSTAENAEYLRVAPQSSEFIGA
The following molecules are shown together with reported composite z-score values.
READOUT NAME: composite z-score

[[record]]
smiles_structure = "CC(C)CNC(=O)[C@@H]1c2ccccc2C(=O)N(CC23CC4CC(CC(C4)C2)C3)[C@H]1c1ccc(CO)cc1"
study_target = "Epidermal growth factor receptor (Homo sapiens) (UniProt P00533)"
reported_result = 0.0591

[[record]]
smiles_structure = "CCCC=C(CCC)[C@@H](NC(=O)c1ccccc1)c1ccc(C(=O)OC)cc1"
study_target = "Epidermal growth factor receptor (Homo sapiens) (UniProt P00533)"
reported_result = 0.891

[[record]]
smiles_structure = "COc1ccc(CCNC(=O)[C@@]2(C)c3ccccc3C(=O)N(Cc3cc(C(F)(F)F)cc(C(F)(F)F)c3)[C@H]2c2ccc(CO)cc2)cc1"
study_target = "Epidermal growth factor receptor (Homo sapiens) (UniProt P00533)"
reported_result = 0.875


###

assay: modulators of S6 phosphorylation in cells, primary screen, cell-based, A549, cytoblot, luminescence, serum-stimulated (AID 1158); details: A549 phospho-S6 cytoblot, 5 h, higher = more signal;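 also: serum-stimulated A549 lung adenocarcinoma cells; signal is phosphorylated S6 detected by cytoblot immunostaining with HRP secondary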
Use 0.09 as the dividing line for z-score, with the line itself on the condition met side and lower values as condition not met.

[[record]]
compound = "COc1ccc(CCNC(=O)[C@@H]2c3ccccc3C(=O)N(CC34CC5CC(CC(C5)C3)C4)[C@H]2c2ccc(CO)cc2)cc1"
qualitative_label = "condition met"

[[record]]
compound = "CCCCC(=C=CC[C@@H](O)c1cccc(OCCO)c1)C[C@@H](O)COCc1ccccc1"
qualitative_label = "condition met"

[[record]]
compound = "C=C(COC)/C(=C/C[C@H](OC(=O)c1ccncc1)c1cccc(OCCO)c1)c1cnc2ccccc2c1"
qualitative_label = "condition met"

[[record]]
compound = "C=CCC(OC(C)=O)[C@@H]1[C@@H](N(Cc2ccc(-c3cccc(C(F)(F)F)c3)o2)C(=O)Cc2ccc(F)cc2)c2cc(OCCCO)ccc2N1C(=O)c1ccc2ccccc2n1 (stereo partly specified)"
qualitative_label = "condition not met"

[[record]]
compound = "COCCOC(=O)N1C(=O)[C@@]2(c3cc(C#CCC(C(=O)OC)C(=O)OC)ccc31)[C@H](c1ccc(OCCO)cc1)N1[C@H](c3ccccc3)[C@H](c3ccccc3)OC(=O)[C@H]1[C@@H]2C(=O)N1CCCCCCC1"
qualitative_label = "condition not met"

[[record]]
compound = "CCCC[C@H]1OB(O)C[C@H]2C1=C(COC)C[C@H]1C(=O)C=CC(=O)[C@H]12"
qualitative_label = "condition met"


###

target: Neurogenic locus notch homolog protein 3 (Homo sapiens) (UniProt Q9UM47); assay: NOTCH3 binders on small-molecule microarray, primary screen, biochemical, 635/667 nm fluorescence (AID 1096); settings: NOTCH3 binding, 635 nm fluorescence, higher = more signal
Sequence (Q9UM47 whole entry, looked up): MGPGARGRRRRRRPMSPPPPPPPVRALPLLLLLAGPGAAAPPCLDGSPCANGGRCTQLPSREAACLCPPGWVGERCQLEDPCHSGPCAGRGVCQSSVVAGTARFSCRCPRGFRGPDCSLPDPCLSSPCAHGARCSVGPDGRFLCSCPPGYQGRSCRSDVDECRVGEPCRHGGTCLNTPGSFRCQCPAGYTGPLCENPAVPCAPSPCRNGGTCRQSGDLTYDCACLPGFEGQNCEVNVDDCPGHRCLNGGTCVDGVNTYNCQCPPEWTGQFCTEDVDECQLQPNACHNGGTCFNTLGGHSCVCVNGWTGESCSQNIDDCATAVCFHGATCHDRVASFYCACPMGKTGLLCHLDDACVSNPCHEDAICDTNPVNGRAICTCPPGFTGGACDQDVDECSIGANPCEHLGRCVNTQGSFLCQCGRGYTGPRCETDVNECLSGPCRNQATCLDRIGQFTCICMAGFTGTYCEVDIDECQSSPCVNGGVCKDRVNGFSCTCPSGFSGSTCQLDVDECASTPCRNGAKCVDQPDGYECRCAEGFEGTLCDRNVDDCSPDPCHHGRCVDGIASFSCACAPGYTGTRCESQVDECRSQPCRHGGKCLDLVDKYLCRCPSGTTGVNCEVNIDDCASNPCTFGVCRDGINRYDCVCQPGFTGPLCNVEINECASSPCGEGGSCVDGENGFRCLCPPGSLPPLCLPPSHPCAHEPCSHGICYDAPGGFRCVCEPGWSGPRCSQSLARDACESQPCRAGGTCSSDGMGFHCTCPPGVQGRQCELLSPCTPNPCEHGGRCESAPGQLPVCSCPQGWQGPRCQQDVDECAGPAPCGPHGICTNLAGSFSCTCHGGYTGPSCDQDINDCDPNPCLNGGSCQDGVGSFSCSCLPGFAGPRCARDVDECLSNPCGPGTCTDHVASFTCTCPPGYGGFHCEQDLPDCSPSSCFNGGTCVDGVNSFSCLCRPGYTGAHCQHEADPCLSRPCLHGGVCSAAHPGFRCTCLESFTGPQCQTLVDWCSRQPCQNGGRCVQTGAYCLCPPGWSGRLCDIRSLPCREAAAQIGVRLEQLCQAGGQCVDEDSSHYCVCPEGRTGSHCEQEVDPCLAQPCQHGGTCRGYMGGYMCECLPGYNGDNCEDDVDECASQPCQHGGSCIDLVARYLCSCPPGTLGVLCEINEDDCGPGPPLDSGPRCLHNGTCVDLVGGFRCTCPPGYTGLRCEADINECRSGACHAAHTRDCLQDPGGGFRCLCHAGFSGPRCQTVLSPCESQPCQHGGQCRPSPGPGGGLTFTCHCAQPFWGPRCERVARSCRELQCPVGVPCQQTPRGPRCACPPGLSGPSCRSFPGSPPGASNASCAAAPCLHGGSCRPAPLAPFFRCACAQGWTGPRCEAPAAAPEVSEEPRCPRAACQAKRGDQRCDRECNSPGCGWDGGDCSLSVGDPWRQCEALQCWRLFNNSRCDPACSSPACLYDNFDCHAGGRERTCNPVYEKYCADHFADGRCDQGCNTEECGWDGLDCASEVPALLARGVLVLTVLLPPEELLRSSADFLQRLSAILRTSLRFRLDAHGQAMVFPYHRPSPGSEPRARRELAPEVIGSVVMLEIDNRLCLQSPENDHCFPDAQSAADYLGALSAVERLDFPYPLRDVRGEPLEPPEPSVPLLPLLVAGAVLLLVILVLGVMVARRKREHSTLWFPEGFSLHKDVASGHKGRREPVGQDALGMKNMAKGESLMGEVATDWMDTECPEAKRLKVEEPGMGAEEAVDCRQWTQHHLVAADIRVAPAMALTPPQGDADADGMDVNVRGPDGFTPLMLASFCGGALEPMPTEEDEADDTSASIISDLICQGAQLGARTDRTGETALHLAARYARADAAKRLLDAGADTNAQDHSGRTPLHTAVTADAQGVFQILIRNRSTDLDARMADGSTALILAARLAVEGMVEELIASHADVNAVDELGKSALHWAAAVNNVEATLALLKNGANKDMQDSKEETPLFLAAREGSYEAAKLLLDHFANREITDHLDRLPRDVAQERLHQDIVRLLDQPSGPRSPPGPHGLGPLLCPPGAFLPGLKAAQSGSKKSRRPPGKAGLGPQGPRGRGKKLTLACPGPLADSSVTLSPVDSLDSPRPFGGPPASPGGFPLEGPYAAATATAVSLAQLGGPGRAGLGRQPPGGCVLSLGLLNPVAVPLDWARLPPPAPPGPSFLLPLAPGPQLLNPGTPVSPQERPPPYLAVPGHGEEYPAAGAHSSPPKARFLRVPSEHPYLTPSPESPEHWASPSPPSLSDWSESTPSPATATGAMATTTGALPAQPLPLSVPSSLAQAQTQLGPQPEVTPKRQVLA
Use 1 as the dividing line for composite z-score, with the line itself on the Satisfied side and lower values as Not satisfied.

[[record]]
compound = "CC(C)CNC(=O)[C@@H]1c2ccccc2C(=O)N(Cc2ccccc2Cl)[C@H]1c1ccc(CO)cc1"
qualitative_label = "Not satisfied"

[[record]]
compound = "O=C1C2C=CC(C(O)c3ccc([N+](=O)[O-])cc3)N(Nc3ccccc3)C2C(=O)N1c1ccccc1 (stereo unspecified)"
qualitative_label = "Satisfied"

[[record]]
compound = "COc1ccc(NN2C(C(O)c3cc(C(F)(F)F)cc(C(F)(F)F)c3)C=CC3C(=O)N(C4CCCCC4)C(=O)C32)cc1 (stereo unspecified)"
qualitative_label = "Satisfied"

[[record]]
compound = "Cc1ccc(S[C@]2(C(=O)NCCN3CCOCC3)CC(=O)N(C3CCCCC3)[C@@H]2c2ccc(CO)cc2I)cc1"
qualitative_label = "Satisfied"

[[record]]
compound = "C=C(CCCC)C(=O)CC[C@H](OC(C)=O)c1ccccc1OCCO"
qualitative_label = "Not satisfied"


###

target: NADPH oxidase 5 (Homo sapiens) (UniProt Q96PH1); test: NOX5-dependent H2O2 signal modulators, primary screen, NOX inhibitor project, cell-based, HEK293-NOX5, Amplex Red fluorescence (AID 1161); details: HEK293-NOX5, ionomycin, 45 min, higher = more signal
Sequence (Q96PH1 whole entry, looked up): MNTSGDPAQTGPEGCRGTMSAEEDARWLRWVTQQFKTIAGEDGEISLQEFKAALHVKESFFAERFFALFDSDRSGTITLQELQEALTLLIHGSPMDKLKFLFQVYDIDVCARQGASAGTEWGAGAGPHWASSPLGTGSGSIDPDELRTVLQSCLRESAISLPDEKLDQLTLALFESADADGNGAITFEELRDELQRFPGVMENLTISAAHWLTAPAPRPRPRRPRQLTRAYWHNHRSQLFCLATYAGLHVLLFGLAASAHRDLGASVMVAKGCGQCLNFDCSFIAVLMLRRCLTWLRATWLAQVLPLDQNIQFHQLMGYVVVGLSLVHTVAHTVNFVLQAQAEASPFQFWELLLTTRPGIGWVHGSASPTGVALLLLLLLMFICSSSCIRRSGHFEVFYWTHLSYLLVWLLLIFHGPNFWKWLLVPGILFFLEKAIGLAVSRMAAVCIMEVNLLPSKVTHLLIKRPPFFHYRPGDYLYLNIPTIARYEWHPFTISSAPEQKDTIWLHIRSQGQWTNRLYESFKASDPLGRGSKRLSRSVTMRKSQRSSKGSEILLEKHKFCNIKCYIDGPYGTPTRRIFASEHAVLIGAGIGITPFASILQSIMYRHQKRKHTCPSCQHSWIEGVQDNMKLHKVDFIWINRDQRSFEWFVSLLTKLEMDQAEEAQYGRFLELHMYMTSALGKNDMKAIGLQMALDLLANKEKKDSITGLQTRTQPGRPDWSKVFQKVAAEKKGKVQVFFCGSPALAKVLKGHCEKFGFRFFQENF
Use -0.2 as the dividing line for z-score, with the line itself on the condition met side and lower values as condition not met.

[[record]]
compound = "C=C(COC)/C(=C/C[C@H](OC(=O)c1ccncc1)c1ccc(OCCO)cc1)c1cc(C(=O)OC)ccc1OC"
study_target = "NADPH oxidase 5 (Homo sapiens) (UniProt Q96PH1)"
qualitative_label = "condition not met"

[[record]]
compound = "CCOC(=O)C1=CC[C@@H](c2ccccc2)N(S(=O)(=O)c2ccc(C)cc2)[C@H]1C#N"
study_target = "NADPH oxidase 5 (Homo sapiens) (UniProt Q96PH1)"
qualitative_label = "condition met"

[[record]]
compound = "CC=CC(O)C1C=CC2C(=O)N(C)C(=O)C2N1NC(=O)OC(C)(C)C (configuration not stated)"
study_target = "NADPH oxidase 5 (Homo sapiens) (UniProt Q96PH1)"
qualitative_label = "condition not met"

[[record]]
compound = "COC(=O)[C@@]1(CCC(=O)OC(C)(C)C)N=C(c2ccc(OCCCO)cc2)O[C@H]1c1ccccc1CN=[N+]=[N-]"
study_target = "NADPH oxidase 5 (Homo sapiens) (UniProt Q96PH1)"
qualitative_label = "condition not met"

[[record]]
compound = "COc1ccc(NC(=O)O[C@H]2[C@H](OC(=O)Nc3ccc4c(c3)OCO4)[C@H](OC(=O)Nc3ccc4c(c3)OCO4)[C@@H](OC)O[C@@H]2CO)cc1"
study_target = "NADPH oxidase 5 (Homo sapiens) (UniProt Q96PH1)"
qualitative_label = "condition not met"

[[record]]
compound = "COC(=O)[C@@]1(Cc2ccc(F)cc2)[C@H]2c3cc(C(=O)N4CCCC4)n(CCO)c3C[C@H]2CN1C(=O)c1ccccc1"
study_target = "NADPH oxidase 5 (Homo sapiens) (UniProt Q96PH1)"
qualitative_label = "condition met"

